test: Lipophilicity, logD of compound at pH 7.4; format: physicochemical; conditions: buffer
observable: logD
Just the number, please, no unit after it.

Query block: For the compound shown here, Oc1ccc2c(c1)CCN(CCCCc1ccccc1[18F])C[C@@H]2O , give the reported logD.
Result block: 2.2

----------
test: Lipophilicity, logP of the compound; conditions: octanol/water
observable: logP
Enter a number only.

Examples with their reported logP follow.
compound | logP
CN1CC=C[C@H]1COc1cccnc1[18F] | 1.21
N[11C](=O)c1ccc(Oc2ccc(CN3CCC[C@H]3c3cccnc3)cc2)c(Cl)c1 | 3.67
[11CH3]Oc1cccc(-c2c(O)c3c(I)cc(Cl)cc3[nH]c2=O)c1 | 3.81
FC(F)([18F])C(Cl)Br (stereo unspecified) | 2.28
FCOC(C(F)(F)F)C(F)(F)[18F] (stereo unspecified) | 2.24
CN1C2CCCC1C(c1cncc(-c3cccc([18F])n3)c1)C2 (stereo unspecified) | 2.89
[18F]CCCc1cncc(OC[C@@H]2C=CCN2)c1 | 1.42
C[C@@H](C[11CH3])CCc1cnc(Cl)c(/C=C/c2ccncc2)c1 | 4.94
[11CH3]OC(=O)c1cncn1Cc1ccccc1 | 1.18
CCCc1cc(Cl)cc2[nH]c(=O)c(-c3cccc(O[11CH3])c3)c(O)c12 | 3.78

Read the next record carefully.
Query block: Could you share which logP value was measured for CCN(CC)C[C@@H]1CN(C(=O)CO[11CH3])CCN1C(=O)Cc1ccc(C)c(C)c1 ?
Result block: 1.67
